In this section, each of the compounds is paired with its reported Ki.
- target.or.system: MMP-9 (Homo sapiens, UniProt P14780)
- Construct: made in house; host or cells: MMP-9-transfected HT1080 cells (spent media)
- Sequence (P14780 107-707 limits assumed): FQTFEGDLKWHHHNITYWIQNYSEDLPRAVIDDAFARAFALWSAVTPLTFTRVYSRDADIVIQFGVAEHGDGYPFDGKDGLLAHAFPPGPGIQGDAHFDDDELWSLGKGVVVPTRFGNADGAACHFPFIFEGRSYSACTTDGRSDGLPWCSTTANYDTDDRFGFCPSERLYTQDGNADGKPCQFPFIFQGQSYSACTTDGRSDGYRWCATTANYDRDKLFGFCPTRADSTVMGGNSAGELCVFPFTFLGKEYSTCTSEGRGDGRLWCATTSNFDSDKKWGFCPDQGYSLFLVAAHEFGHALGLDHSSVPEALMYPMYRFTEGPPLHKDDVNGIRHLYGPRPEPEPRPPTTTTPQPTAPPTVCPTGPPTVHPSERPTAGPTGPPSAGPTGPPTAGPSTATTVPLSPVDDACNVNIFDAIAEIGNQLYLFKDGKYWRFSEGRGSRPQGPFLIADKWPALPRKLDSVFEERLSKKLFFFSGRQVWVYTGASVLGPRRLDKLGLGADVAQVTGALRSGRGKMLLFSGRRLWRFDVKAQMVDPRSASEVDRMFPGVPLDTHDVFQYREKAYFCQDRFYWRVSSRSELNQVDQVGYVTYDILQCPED
- test.method.notes: In vitro MMP inhibition, Ki determination (fluorogenic substrate II)
- Format: biochemical
- assay.context: value not in parenthesis

{"smiles": "CCCc1ccc(N2CCN(S(=O)(=O)C3(C(=O)NO)CCOCC3)CC2)nc1", "target.or.system": "MMP-9 (Homo sapiens, UniProt P14780)", "output.unit": "nM", "Ki": 0.196}
{"smiles": "CCCCc1ccc(N2CCN(S(=O)(=O)C3(C(=O)NO)CCOCC3)CC2)c(F)c1", "target.or.system": "MMP-9 (Homo sapiens, UniProt P14780)", "output.unit": "nM", "Ki": 0.452}
{"smiles": "O=C(NO)C1(S(=O)(=O)N2CCN(c3ccc(CCC(F)(F)F)cc3)CC2)CCOCC1", "target.or.system": "MMP-9 (Homo sapiens, UniProt P14780)", "output.unit": "nM", "Ki": 0.8}
{"smiles": "COCCN1CCC(C(=O)NO)(S(=O)(=O)N2CCN(c3ccc(OCCCCF)cc3)CC2)CC1", "target.or.system": "MMP-9 (Homo sapiens, UniProt P14780)", "output.unit": "nM", "Ki": 2.18}
{"smiles": "CCCCc1ccc(N2CCN(S(=O)(=O)C3(C(=O)NO)CCN(c4ccc(C)cc4)CC3)CC2)cc1", "target.or.system": "MMP-9 (Homo sapiens, UniProt P14780)", "output.unit": "nM", "Ki": 2.29}
{"smiles": "COCCN1CCC(C(=O)NO)(S(=O)(=O)N2CCN(c3ccc(CCCCC(C)C)cc3)CC2)CC1", "target.or.system": "MMP-9 (Homo sapiens, UniProt P14780)", "output.unit": "nM", "Ki": 4.21}
{"smiles": "CCCCCc1ccc(N2CCN(S(=O)(=O)C3(C(=O)NO)CCOCC3)CC2)nn1", "target.or.system": "MMP-9 (Homo sapiens, UniProt P14780)", "output.unit": "nM", "Ki": 20.2}
{"smiles": "O=C(NO)C1(S(=O)(=O)N2CCN(c3ccc4c(c3)OC(F)(F)C(F)(F)O4)CC2)CCOCC1", "target.or.system": "MMP-9 (Homo sapiens, UniProt P14780)", "output.unit": "nM", "Ki": 1380}

* * *

- target.or.system: MMP-9 (Homo sapiens, UniProt P14780)
- Construct: made in house; host or cells: MMP-9-transfected HT1080 cells (spent media)
- test.method.notes: MMP-9 inhibition (in vitro Ki)
- Format: biochemical
- assay.context: Table 8; read-out: MMP-9 Ki
pKi: −log10 of the molar value. Where a name gives a salt, the structure may show the parent alone.
In this section, each of the compounds is paired with its reported pKi.

{"compound": "CCCCOCCC1CCN(S(=O)(=O)C2(C(=O)NO)CCOCC2)CC1", "target.or.system": "MMP-9 (Homo sapiens, UniProt P14780)", "pKi": 7.90}
{"compound": "O=C(NO)C1(S(=O)(=O)N2CCC(c3ccc(OCC(F)(F)F)cn3)CC2)CCOCC1 [Example A57, Hydrochloride]", "target.or.system": "MMP-9 (Homo sapiens, UniProt P14780)", "pKi": 9.32}
{"compound": "O=C(NO)C1(S(=O)(=O)N2CCC(c3ccc(OCC(F)(F)C(F)(F)F)cn3)CC2)CCOCC1 [Example A58, Hydrochloride]", "target.or.system": "MMP-9 (Homo sapiens, UniProt P14780)", "pKi": 8.86}
{"compound": "O=C(NO)C1(S(=O)(=O)N2CCC(CCCCCCC(F)(F)C(F)(F)F)CC2)CCOCC1", "target.or.system": "MMP-9 (Homo sapiens, UniProt P14780)", "pKi": 9.00}
{"compound": "CC(C)(C)CCOC1CCN(S(=O)(=O)C2(C(=O)NO)CCOCC2)CC1 [Example A36E]", "target.or.system": "MMP-9 (Homo sapiens, UniProt P14780)", "pKi": 6.44}
{"compound": "O=C(NO)C1(S(=O)(=O)N2CCC(CCCCCCCC(F)(F)F)CC2)CCOCC1", "target.or.system": "MMP-9 (Homo sapiens, UniProt P14780)", "pKi": 8.99}
{"compound": "CCCCCOCCC1CCN(S(=O)(=O)C2(C(=O)NO)CCOCC2)CC1", "target.or.system": "MMP-9 (Homo sapiens, UniProt P14780)", "pKi": 7.99}
{"compound": "CCOCCCCCC1CCN(S(=O)(=O)C2(C(=O)NO)CCOCC2)CC1", "target.or.system": "MMP-9 (Homo sapiens, UniProt P14780)", "pKi": 8.65}
{"compound": "CCCCCOC1CCN(S(=O)(=O)C2(C(=O)NO)CCOCC2)CC1 [Example A36A]", "target.or.system": "MMP-9 (Homo sapiens, UniProt P14780)", "pKi": 8.58}
{"compound": "CCCCC=CCCOC1CCN(S(=O)(=O)C2(C(=O)NO)CCOCC2)CC1 [Example A36C]", "target.or.system": "MMP-9 (Homo sapiens, UniProt P14780)", "pKi": 8.47}
{"compound": "O=C(NO)C1(S(=O)(=O)N2CCC(c3cnc(CCC(F)(F)C(F)(F)F)cn3)CC2)CCOCC1", "target.or.system": "MMP-9 (Homo sapiens, UniProt P14780)", "pKi": 9.72}
{"compound": "O=C(NO)C1(S(=O)(=O)N2CCC(c3ccc(CCC(F)(F)C(F)(F)F)cn3)CC2)CCCCC1 [Example A56, Hydrochloride]", "target.or.system": "MMP-9 (Homo sapiens, UniProt P14780)", "pKi": 9.82}
{"compound": "COCCC(CCOC)(C(=O)NO)S(=O)(=O)N1CCC(c2ccc(CCC(F)(F)C(F)(F)F)cn2)CC1 [Example A61, Hydrochloride]", "target.or.system": "MMP-9 (Homo sapiens, UniProt P14780)", "pKi": 9.42}
{"compound": "O=C(NO)C1(S(=O)(=O)N2CCC(CCCCOCCCC(F)(F)F)CC2)CCOCC1", "target.or.system": "MMP-9 (Homo sapiens, UniProt P14780)", "pKi": 7.33}
{"compound": "O=C(NO)C1(S(=O)(=O)N2CCC(OCCCCCC(F)(F)C(F)(F)F)CC2)CCOCC1", "target.or.system": "MMP-9 (Homo sapiens, UniProt P14780)", "pKi": 8.15}
{"compound": "O=C(NO)C1(S(=O)(=O)N2CCC(CCCCc3nc(-c4ccc(OC(F)(F)F)cc4)no3)CC2)CCOCC1", "target.or.system": "MMP-9 (Homo sapiens, UniProt P14780)", "pKi": 6.56}
{"compound": "O=C(NO)C1(S(=O)(=O)N2CCC(OCCCCCC(F)(F)F)CC2)CCOCC1", "target.or.system": "MMP-9 (Homo sapiens, UniProt P14780)", "pKi": 8.51}
{"compound": "O=C(NO)C1(S(=O)(=O)N2CCC(CCCCCC(F)(F)C(F)(F)F)CC2)CCOCC1", "target.or.system": "MMP-9 (Homo sapiens, UniProt P14780)", "pKi": 9.09}
{"compound": "O=C(NO)C1(S(=O)(=O)N2CCC(CCCCCC(F)(F)F)CC2)CCOCC1", "target.or.system": "MMP-9 (Homo sapiens, UniProt P14780)", "pKi": 9.72}
{"compound": "O=C(NO)C1(S(=O)(=O)N2CCN(c3ccc(CCCC(F)(F)F)c(F)c3)CC2)CCN(C2CC2)CC1 [Example A62, Hydrochloride]", "target.or.system": "MMP-9 (Homo sapiens, UniProt P14780)", "pKi": 8.76}
{"compound": "CCCCCCCCOC1CCN(S(=O)(=O)C2(C(=O)NO)CCOCC2)CC1 [Example A36B]", "target.or.system": "MMP-9 (Homo sapiens, UniProt P14780)", "pKi": 8.87}
{"compound": "O=C(NO)C1(S(=O)(=O)N2CCC(CCCOCCCC(F)(F)F)CC2)CCOCC1 [Example A36J]", "target.or.system": "MMP-9 (Homo sapiens, UniProt P14780)", "pKi": 7.99}
{"compound": "O=C(NO)C1(S(=O)(=O)N2CCC(CCCCOCCC(F)(F)F)CC2)CCOCC1", "target.or.system": "MMP-9 (Homo sapiens, UniProt P14780)", "pKi": 7.76}
{"compound": "O=C(NO)C1(S(=O)(=O)N2CCC(CCOCCCC(F)(F)F)CC2)CCOCC1", "target.or.system": "MMP-9 (Homo sapiens, UniProt P14780)", "pKi": 7.77}
{"compound": "CCCCOCCCC1CCN(S(=O)(=O)C2(C(=O)NO)CCOCC2)CC1 [Example A36I]", "target.or.system": "MMP-9 (Homo sapiens, UniProt P14780)", "pKi": 8.59}
